# measurement.target: BK receptors in human ciliary muscle cells (h-CM) (Homo sapiens, UniProt P30411)
# Construct: h-CM cells expressing BK receptors were seeded; endogenous in cells; host or cells: human ciliary muscle (h-CM) cells
# experimental.protocol: Functional assay measuring [Ca2+]i mobilization (FLIPR) in h-CM cells
# Format: cell-based
# test.parameters: class symbols (in μM), read-out: CaM (EC50)
Please go through the items and note down their EC50.

// query Fill in: EC50 of COc1nc2c(OCc3c(Cl)ccc(N(C)C(=O)CNC(=O)CN4CCC(NC(C)=O)CC4)c3Cl)cccc2n1Cc1ccccn1 is ___
// result 0.1 to 1 µM

// query Same thing, different compound: COc1nc2c(OCc3c(Cl)ccc(N(C)C(=O)CNC(=O)CCc4ccc(NC(=O)CN(C)C)nc4)c3Cl)cccc2n1Cc1ccccn1
// result < 0.1 µM

// query Same thing, different compound: COc1nc2c(OCc3c(Cl)ccc(N(C)C(=O)CNC(=O)CCc4ccc(C(=O)NCCO)cc4)c3Cl)cccc2n1Cc1ccccn1
// result < 0.1 µM

// query Same thing, different compound: COC(=O)N1CCN(CCC(=O)NCC(=O)N(C)c2ccc(Cl)c(COc3cccc4c3nc(OC)n4Cc3ccccn3)c2Cl)CC1
// result 0.1 to 1 µM

// query Same thing, different compound: COc1nc2c(OCc3c(Cl)ccc(N(C)C(=O)CNC(=O)CCN4CCC(NC(C)=O)CC4)c3Cl)cccc2n1Cc1ccccn1
// result < 0.1 µM

// query Same thing, different compound: COC(=O)Nc1ccc(CCC(=O)NCC(=O)N(C)c2ccc(Cl)c(COc3cccc4c3nc(OC)n4Cc3ccccn3)c2Cl)cn1
// result < 0.1 µM

----------
# measurement.target: BK receptors in human ciliary muscle cells (h-CM) (Homo sapiens)
# Construct: h-CM cells expressing BK receptors were seeded; endogenous in cells; host or cells: human ciliary muscle (h-CM) cells
# experimental.protocol: Functional assay measuring [Ca2+]i mobilization (FLIPR) in h-CM cells
# Assay type: cell-based
# test.parameters: class symbols (in μM), read-out: CaM (EC50)
Please go through the items and note down their EC50.

// query Fill in: EC50 of CNC(=O)c1ccc(CCC(=O)NCC(=O)N(C)c2ccc(Cl)c(COc3cccc4c(OCc5ccccn5)cc(C)nc34)c2Cl)cn1 [Compound 27] is ___
// result 0.1 to 1 µM

// query Same thing, different molecule: COc1nc2c(OCc3c(Cl)ccc(N(C)C(=O)CNC(=O)CN4CCO[C@@H](C(=O)NC5CC5)C4)c3Cl)cccc2n1Cc1ccccn1 [Compound 84]
// result < 0.1 µM

// query Same thing, different molecule: CNC(=O)C1CN(CC(=O)NCC(=O)N(C)c2ccc(Cl)c(COc3cccc4c3nc(OC)n4Cc3ccccn3)c2Cl)CCO1 (stereo not drawn) [Compound 44]
// result < 0.1 µM

----------
# measurement.target: recombinant human bradykinin B2 receptor (Homo sapiens, UniProt P30411)
# Construct: expressed in transfected cells; host or cells: Chinese hamster ovary (CHO) cells, membrane homogenates
# Sequence (P30411 1-391): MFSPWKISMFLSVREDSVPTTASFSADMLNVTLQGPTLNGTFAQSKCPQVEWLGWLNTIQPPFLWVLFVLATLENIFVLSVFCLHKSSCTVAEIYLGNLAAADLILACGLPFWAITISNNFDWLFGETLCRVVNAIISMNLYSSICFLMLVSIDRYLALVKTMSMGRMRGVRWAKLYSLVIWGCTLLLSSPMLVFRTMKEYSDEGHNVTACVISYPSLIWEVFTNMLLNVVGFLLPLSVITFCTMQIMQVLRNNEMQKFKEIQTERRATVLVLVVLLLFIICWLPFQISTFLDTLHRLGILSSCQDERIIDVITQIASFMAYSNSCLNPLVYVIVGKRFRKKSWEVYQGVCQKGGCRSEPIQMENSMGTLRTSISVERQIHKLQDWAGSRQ
# experimental.protocol: [3H]-BK competition radioligand binding to human cloned B2 receptor (CHO cell membranes)
# test.parameters: 0.2 nM [3H]-bradykinin, CHO membranes, 60 min 23° C.; mean ± SEM or single value; Ki from IC50 by Cheng-Prusoff; read-out: [3H]-BK Binding to Human Cloned B2 Receptor (Ki)
Please go through the items and note down their log10 Ki.
Parameter value (number): base-10 log of Ki in µM.

// query Fill in: log10 Ki of COc1nc2c(OCc3c(Cl)ccc(N(C)C(=O)CNC(=O)CCC4CN=C(N[N+](=O)[O-])NC4)c3Cl)cccc2n1Cc1ccccn1 (stereo not drawn) [Compound 76] is ___
// result -0.63

// query Same thing, different molecule: CNC(=O)N1CCN(CCCC(=O)NCC(=O)N(C)c2ccc(Cl)c(COc3cccc4c3nc(OC)n4Cc3ccccn3)c2Cl)CC1 [Compound 12]
// result -0.58

// query Same thing, different molecule: CNC(=O)N1CCOC(CC(=O)NCC(=O)N(C)c2ccc(Cl)c(COc3cccc4c3nc(OC)n4Cc3ccccn3)c2Cl)C1 (stereo not drawn) [Compound 79]
// result -0.07

// query Same thing, different molecule: CNC(=O)CN1CCN(CC(=O)NCC(=O)N(C)c2ccc(Cl)c(COc3cccc4c3nc(OC)n4Cc3ccccn3)c2Cl)CC1 [Compound 53]
// result -0.47

// query Same thing, different molecule: CNC(=O)C1CCN(CC(=O)NCC(=O)N(C)c2ccc(C)c(COc3cccc4c3nc(OC)n4Cc3ccccn3)c2C)CC1 [Compound 52]
// result -1.80

// query Same thing, different molecule: CNCc1ccc(CCC(=O)NCC(=O)N(C)c2ccc(Cl)c(COc3cccc4c3nc(OC)n4Cc3ccccn3)c2Cl)cc1 [Compound 83]
// result -0.48

----------
# measurement.target: recombinant human bradykinin B2 receptor (Homo sapiens)
# Construct: expressed in transfected cells; host or cells: Chinese hamster ovary (CHO) cells, membrane homogenates
# experimental.protocol: [3H]-BK competition radioligand binding to human cloned B2 receptor (CHO cell membranes)
# test.parameters: 0.2 nM [3H]-bradykinin, CHO membranes, 60 min 23° C.; mean ± SEM or single value; Ki from IC50 by Cheng-Prusoff; read-out: [3H]-BK Binding to Human Cloned B2 Receptor (Ki)
value.type: Ki (nM)
Field format: number, assumed nM, no unit text.

// query Fill in: Ki of COc1nc2c(OCc3c(Cl)ccc(N(C)C(=O)CNC(=O)CCN4CCC(NC(C)=O)CC4)c3Cl)cccc2n1Cc1ccccn1 is ___
// result 68

// query Same thing, different compound: CCc1nc2c(OCc3c(Cl)ccc(N(C)C(=O)CNC(=O)CNC4CCN(C(=O)NC)CC4)c3Cl)cccn2c1C(O)c1ccccn1 (stereo not drawn)
// result 1730

// query Same thing, different compound: COc1nc2c(OCc3c(Cl)ccc(N(C)C(=O)CNC(=O)CN4CCC(NC(C)=O)CC4)c3Cl)cccc2n1Cc1ccccn1
// result 467

// query Same thing, different compound: CNC(=O)c1ccc(CCC(=O)NCC(=O)N(C)c2ccc(C)c(COc3cccc4c3nc(OC)n4Cc3ccccn3)c2C)cc1
// result 42

// query Same thing, different compound: CNC(=O)c1ccc(CCC(=O)NCC(=O)N(C)c2ccc(Cl)c(COc3cccc4c(OCc5ccccn5)cc(C)nc34)c2Cl)cc1
// result 3

// query Same thing, different compound: CCOC(=O)NC1=NCC(CCC(=O)NCC(=O)N(C)c2ccc(Cl)c(COc3cccc4c3nc(OC)n4Cc3ccccn3)c2Cl)CN1 (stereo not drawn)
// result 667

----------
# measurement.target: BK receptors in human ciliary muscle cells (h-CM) (Homo sapiens)
# Construct: h-CM cells expressing BK receptors were seeded; endogenous in cells; host or cells: human ciliary muscle (h-CM) cells
# experimental.protocol: Functional assay measuring [Ca2+]i mobilization (FLIPR) in h-CM cells
# Assay type: cell-based
# test.parameters: class symbols (in μM), read-out: CaM (EC50)
Please go through the items and note down their EC50.

// query Fill in: EC50 of COc1nc2c(OCc3c(Cl)ccc(N(C)C(=O)CNC(=O)[C@H]4CCN(C(=O)OC(C)(C)C)C4)c3Cl)cccc2n1Cc1ccccn1 [Compound 34] is ___
// result < 0.1 µM

// query Same thing, different compound: COc1nc2c(OCc3c(C)ccc(N(C)C(=O)CNC(=O)CCc4cnc5[nH]c(=O)oc5c4)c3C)cccc2n1Cc1ccccn1 [Compound 3]
// result < 0.1 µM

// query Same thing, different compound: CNC(=O)N1CCN(CC(F)(F)C(=O)NCC(=O)N(C)c2ccc(Cl)c(COc3cccc4c3nc(OC)n4Cc3ccccn3)c2Cl)CC1 [Compound 40]
// result < 0.1 µM

----------
Please go through the items and note down their Ki.
# measurement.target: recombinant human bradykinin B2 receptor (Homo sapiens)
# Construct: expressed in transfected cells; host or cells: Chinese hamster ovary (CHO) cells, membrane homogenates
# experimental.protocol: [3H]-BK competition radioligand binding to human cloned B2 receptor (CHO cell membranes)
# test.parameters: 0.2 nM [3H]-bradykinin, CHO membranes, 60 min 23° C.; mean ± SEM or single value; Ki from IC50 by Cheng-Prusoff; read-out: [3H]-BK Binding to Human Cloned B2 Receptor (Ki)

// query Fill in: Ki of COc1nc2c(OCc3c(Cl)ccc(N(C)C(=O)CNC(=O)CCCNC(C)=O)c3Cl)cccc2n1Cc1ccccn1 is ___
// result 599 nM

// query Same thing, different molecule: CNC(=O)N1CCC(N2CCC(C(=O)NCC(=O)N(C)c3ccc(Cl)c(COc4cccc5c4nc(OC)n5Cc4ccccn4)c3Cl)C2)C1 (stereo not drawn)
// result 171 nM

// query Same thing, different molecule: CNC(=O)c1ccc(CCC(=O)NCC(=O)N(C)c2ccc(Cl)c(COc3cccc4c3nc(OC)n4Cc3ccccn3)c2Cl)cc1
// result 7 nM

// query Same thing, different molecule: COCCNC(=O)c1ccc(CCC(=O)NCC(=O)N(C)c2ccc(Cl)c(COc3cccc4c3nc(OC)n4Cc3ccccn3)c2Cl)cc1
// result 54 nM

// query Same thing, different molecule: CNC(=O)c1ccc(OCC(=O)NCC(=O)N(C)c2ccc(Cl)c(COc3cccc4c3nc(OC)n4Cc3ccccn3)c2Cl)cc1
// result 59.5 nM

// query Same thing, different molecule: COc1nc2c(OCc3c(Cl)ccc(N(C)C(=O)CNC(=O)CCC4CN=C(N)NC4)c3Cl)cccc2n1Cc1ccccn1 (stereo not drawn)
// result 1190 nM
